# System: SR
# ASSAY_PROCEDURE: NCI tumour cell line growth inhibition, 48 h
The source made the active and inactive calls. Cut-off read from the data, not from the text of the source: active = GI50 up to about 1.1 µM and inactive = higher.
MEASUREMENT_LABEL: GI50

Input line: For SR, provide GI50 of `Cc1cc(=O)oc2cc(SC(=O)N(C)C)ccc12` please.
Output line: > 100 µM (inactive)

Input line: What reported GI50 corresponds to `CC(C)OC(=O)C1=C2c3ncccc3C(=O)N2[C@@H](Cl)[C@@H](Cl)[C@@H]1Cl` on SR?
Output line: 49.5 µM (inactive)

Input line: # value lookup — system SR, readout GI50, item `O=S1(=O)c2cnccc2N=C(NCc2cccc3ccccc23)N1c1ccccc1`
Output line: > 100 µM (inactive)

Input line: Field: GI50 (SR). Entry: C=C1C(=O)OC2CCCCC3OC3C12 (stereo unspecified)
Output line: 23 µM (inactive)

Input line: Write down the reported GI50 of `C=CCn1c(=O)c(C(=O)Nc2nc(C34CC5CC(CC(C5)C3)C4)cs2)c(O)c2ccccc21` , test system: SR.
Output line: 37.1 µM (inactive)

Input line: Recorded GI50 for `O=C(O)c1ccc(Nc2nc3ccc(C(F)(F)F)cc3nc2C(=O)O)cc1` with SR, please?
Output line: > 100 µM (inactive)

---

# System: MDA-MB-435
# ASSAY_PROCEDURE: NCI tumour cell line growth inhibition, 48 h
Activity calls are given as the source filed them. Cut-off read from the data, not from the text of the source: active = GI50 up to about 1.1 µM and inactive = higher.
Pick from t (active), f (inactive) when you respond.

Input line: Test call for this compound, please: `CCCCCCNCCCNc1c2cc(OC)ccc2nc2cccc([N+](=O)[O-])c12`
Output line: t

Input line: Entry NC(CSC1(c2ccc(Cl)cc2)c2ccccc2-c2ccccc21)C(=O)O (stereo not given) : call = ?
Output line: f

Input line: Dear colleague, could you share the recorded outcome for `O=c1[nH]c(=O)n([C@@H]2O[C@H](CO)[C@@H](O)[C@@H]2F)cc1I` when you have a moment?
Output line: f

Input line: Assay outcome for CC(C)=CC(O)C/C(C)=C/CC/C(C)=C/CCC1(C)C(CCCO)/C(=C(/C)C=O)CCC1(C)O (stereo not given) : what was it?
Output line: f

Input line: Tell me the assay call for `O=c1c2c3c(sc2nc2n1N=C(c1ccc(Cl)cc1)CS2)CCCC3` please.
Output line: f

Input line: Record request — test call for `CC(C)CCc1n[nH]c(=O)n1/N=C\c1ccccc1`
Output line: f

Input line: Given COc1cc(C2SCC(=O)N2c2ccccc2Cl)cc(OC)c1OC (stereo not given) , state the outcome it received in this test.
Output line: f

Input line: State the result this test recorded for COc1ccc(OC)c(N(CN2C(=O)CCC2C(=O)O)C(C)=O)c1 (stereo not given) .
Output line: f

Input line: Just curious, what result did `O=C(O)c1ccc(Nc2nc3ccc(C(F)(F)F)cc3nc2C(=O)O)cc1` get here?
Output line: f

Input line: // outcome(item) with item = `N#Cc1c(N)n(-c2cccc(C(=O)O)c2)c(=O)c2cc([N+](=O)[O-])ccc12`
Output line: f

---

Give measured GI50 for each item. Keep answers brief.
# Tested on: ACHN
# ASSAY_PROCEDURE: NCI tumour cell line growth inhibition, 48 h
Calls of active or inactive are those of the source. No stated cut-off is given here; in the data, active = GI50 up to about 1.1 µM and inactive = higher.

Input line: Write down the reported GI50 of CC(C)(C)OC(=O)C1C(=O)NC(=O)CC1C(OCc1ccccc1)C(OCc1ccccc1)C(COCc1ccccc1)OCc1ccccc1 (stereo not drawn) , test system: ACHN.
Output line: > 75 µM (inactive)

Input line: Could you share what GI50 was measured for CC1=NN(c2cccc(Cl)c2)C2(C1=Cc1cccs1)C(Cl)C(=O)N2c1nc2ccccc2s1 (stereo not drawn) , tested on ACHN?
Output line: 20.8 µM (inactive)

Input line: Enter reported GI50 observed with ACHN for `CO/N=C(\C)c1ccc(Nc2c3ccccc3nc3occc23)cc1`
Output line: 0.568 µM (active)

Input line: Reported GI50 for ACHN, given `CN(CCCNC(=O)c1cc(-c2ccccc2)nc2ccccc12)CCCNC(=O)c1cc(-c2ccccc2)nc2ccccc12` ?
Output line: 2.81 µM (inactive)

Input line: Look up GI50 with ACHN for this compound: COc1c(C)cc2c(c1O)C1NC(C2)[C@H](O)N2C3COC(=O)[C@@]4(CS[C@@H](c5c(OC(C)=O)c(C)c6c(c53)OCO6)C12)NCCC1=C4NC2C=CC=CC12 (stereo partly drawn)
Output line: < 0.01 µM (active)

Input line: Entry COc1cccc(/C=N\NC(=O)C(C)SC(C)C(=O)N/N=C/c2cccc(OC)c2)c1 (stereo not drawn) , system ACHN: what GI50 was measured?
Output line: 18.9 µM (inactive)

Input line: Checklist item: GI50 tested on ACHN, entry `C[C@H]1S[C@H](c2c(Cl)cccc2Cl)N2Cc3ccccc3N=C12` , value?
Output line: 12.4 µM (inactive)

Input line: Kindly state the measured GI50 obtained for `O=C(O)CN1CCN(CC(=O)O)CCN(CC(=O)O)CC1` with ACHN.
Output line: > 100 µM (inactive)
